Where do these numbers come from? They come from ChEMBL document CHEMBL1121817.

assay: Analgesic potency was determined by the Eddy hotplate method on mice expressed as lethal dose; assay type: ADME, organism-based; conditions: mouse, in vivo

| Compound | LD50, mg/kg |
| --- | --- |
| Cl.c1ccc(CCN2CCCC3CC2c2ccccc23)cc1 (configuration not stated) | 225 |
| Cl.c1ccc2c(c1)C1CCCNC2C1 (configuration not stated) | 225 |
| O=C(O)C(=O)O.c1ccc(CCN2CCCC3CC2c2ccccc23)cc1 (configuration not stated) | 225 |
| C=CCN1CCCC2CC1c1ccccc12.Cl (configuration not stated) | 110 |
| C=CCN1CCCC2CC1c1ccccc12.O=C(O)C(=O)O (configuration not stated) | 150 |
| COc1ccc2c(c1)C1CCCN(CC=C(C)C)C2C1.O=C(O)C(=O)O (configuration not stated) | 300 |
| CC(C)=CCN1CCCC2CC1c1ccccc12.Cl (configuration not stated) | 65 |
| COc1ccc2c(c1)C1CCCN(C)C2C1.O=C(O)C(=O)O (configuration not stated) | 157 |
| CCCN1CCCC2CC1c1ccccc12.O=C(O)C(=O)O (configuration not stated) | 110 |
| O=C(O)C(=O)O.c1ccc2c(c1)C1CCCNC2C1 (configuration not stated) | 225 |
| CC(C)=CCN1CCCC2CC1c1ccccc12.O=C(O)C(=O)O (configuration not stated) | 130 |
| CCCN1CCCC2CC1c1ccccc12.Cl (configuration not stated) | 75 |
